Recorded remaining activity at 100 µM, one value per entry.
Experimental target: PKBa (Homo sapiens, UniProt P31749)
Sequence (P31749 whole entry): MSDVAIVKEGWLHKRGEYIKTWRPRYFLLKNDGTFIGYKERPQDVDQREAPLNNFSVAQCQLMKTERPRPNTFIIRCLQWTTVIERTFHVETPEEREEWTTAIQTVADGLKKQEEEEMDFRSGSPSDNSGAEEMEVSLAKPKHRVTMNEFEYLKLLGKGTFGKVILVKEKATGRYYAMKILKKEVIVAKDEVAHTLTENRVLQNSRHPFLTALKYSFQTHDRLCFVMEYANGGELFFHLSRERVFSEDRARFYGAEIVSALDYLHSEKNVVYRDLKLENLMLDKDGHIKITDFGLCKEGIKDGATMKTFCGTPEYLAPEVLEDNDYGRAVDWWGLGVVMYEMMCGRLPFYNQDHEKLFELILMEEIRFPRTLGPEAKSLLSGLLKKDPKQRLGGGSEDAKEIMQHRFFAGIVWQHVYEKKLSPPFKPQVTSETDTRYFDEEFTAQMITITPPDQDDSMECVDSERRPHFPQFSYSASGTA
Experimental protocol: Kinase profiling PKBa
Format: biochemical
Experimental context: read-out: residual kinase activity, PKBa
Description: Any value less that 25 is considered to be highly significant inhibition.
Measurement kind: remaining activity at 100 µM (%)

{"Mol smiles": "CC(=O)Nc1nc2ccc(C#N)cc2s1", "Numeric readout": 95}
{"Mol smiles": "CC(=O)Nc1nc2cc(O)ccc2s1", "Numeric readout": 87}
{"Mol smiles": "CC(=O)Nc1nc2ccc(O)cc2s1", "Numeric readout": 87}
{"Mol smiles": "CC(=O)Nc1nc2ccc([N+](=O)[O-])cc2s1", "Numeric readout": 101}
{"Mol smiles": "CC(=O)Nc1nc2cc(C(F)(F)F)ccc2s1", "Numeric readout": 106}
{"Mol smiles": "CC(=O)Nc1nc2cc(F)ccc2s1", "Numeric readout": 95}
{"Mol smiles": "COC(=O)c1cccc(C(=O)Nc2nc3ccc(C(F)(F)F)cc3s2)c1", "Numeric readout": 92}
{"Mol smiles": "CC(=O)Nc1nc2ccc(C(F)(F)F)cc2s1", "Numeric readout": 104}
{"Mol smiles": "COc1ccc2sc(NC(C)=O)nc2c1", "Numeric readout": 91}

====

Recorded residual kinase activity, EPH-B2, one value per entry.
Experimental target: EPH-B2 (Homo sapiens)
Experimental protocol: Kinase profiling EPH-B2
Assay type: biochemical
Experimental context: 100 micromolar inhibitor concentration; 100 is no change
Measurement kind: residual kinase activity, EPH-B2

{"Mol smiles": "CC(=O)Nc1nc2ccccc2s1", "Numeric readout": 116}
{"Mol smiles": "O=C(Nc1nc2ccc(O)cc2s1)c1ccncc1", "Numeric readout": 99}
{"Mol smiles": "O=C(Nc1nc2ccc(O)cc2s1)c1ccccn1", "Numeric readout": 103}
{"Mol smiles": "O=C(Nc1nc2ccc(O)cc2s1)c1cccnc1", "Numeric readout": 91}
{"Mol smiles": "O=C(Nc1nc2ccc(O)cc2s1)c1ccccc1", "Numeric readout": 78}
{"Mol smiles": "O=C(Nc1nc2cc(O)ccc2s1)c1ccncc1", "Numeric readout": 89}
{"Mol smiles": "CC(=O)Nc1nc2cc(C)ccc2s1", "Numeric readout": 108}
{"Mol smiles": "O=C(Nc1nc2cc(O)ccc2s1)c1ccccn1", "Numeric readout": 72}
{"Mol smiles": "O=C(Nc1nc2cc(O)ccc2s1)c1cccnc1", "Numeric readout": 99}

====

Experimental target: MEKK1 (Homo sapiens, UniProt Q13233)
Sequence (Q13233 whole entry, species assumed): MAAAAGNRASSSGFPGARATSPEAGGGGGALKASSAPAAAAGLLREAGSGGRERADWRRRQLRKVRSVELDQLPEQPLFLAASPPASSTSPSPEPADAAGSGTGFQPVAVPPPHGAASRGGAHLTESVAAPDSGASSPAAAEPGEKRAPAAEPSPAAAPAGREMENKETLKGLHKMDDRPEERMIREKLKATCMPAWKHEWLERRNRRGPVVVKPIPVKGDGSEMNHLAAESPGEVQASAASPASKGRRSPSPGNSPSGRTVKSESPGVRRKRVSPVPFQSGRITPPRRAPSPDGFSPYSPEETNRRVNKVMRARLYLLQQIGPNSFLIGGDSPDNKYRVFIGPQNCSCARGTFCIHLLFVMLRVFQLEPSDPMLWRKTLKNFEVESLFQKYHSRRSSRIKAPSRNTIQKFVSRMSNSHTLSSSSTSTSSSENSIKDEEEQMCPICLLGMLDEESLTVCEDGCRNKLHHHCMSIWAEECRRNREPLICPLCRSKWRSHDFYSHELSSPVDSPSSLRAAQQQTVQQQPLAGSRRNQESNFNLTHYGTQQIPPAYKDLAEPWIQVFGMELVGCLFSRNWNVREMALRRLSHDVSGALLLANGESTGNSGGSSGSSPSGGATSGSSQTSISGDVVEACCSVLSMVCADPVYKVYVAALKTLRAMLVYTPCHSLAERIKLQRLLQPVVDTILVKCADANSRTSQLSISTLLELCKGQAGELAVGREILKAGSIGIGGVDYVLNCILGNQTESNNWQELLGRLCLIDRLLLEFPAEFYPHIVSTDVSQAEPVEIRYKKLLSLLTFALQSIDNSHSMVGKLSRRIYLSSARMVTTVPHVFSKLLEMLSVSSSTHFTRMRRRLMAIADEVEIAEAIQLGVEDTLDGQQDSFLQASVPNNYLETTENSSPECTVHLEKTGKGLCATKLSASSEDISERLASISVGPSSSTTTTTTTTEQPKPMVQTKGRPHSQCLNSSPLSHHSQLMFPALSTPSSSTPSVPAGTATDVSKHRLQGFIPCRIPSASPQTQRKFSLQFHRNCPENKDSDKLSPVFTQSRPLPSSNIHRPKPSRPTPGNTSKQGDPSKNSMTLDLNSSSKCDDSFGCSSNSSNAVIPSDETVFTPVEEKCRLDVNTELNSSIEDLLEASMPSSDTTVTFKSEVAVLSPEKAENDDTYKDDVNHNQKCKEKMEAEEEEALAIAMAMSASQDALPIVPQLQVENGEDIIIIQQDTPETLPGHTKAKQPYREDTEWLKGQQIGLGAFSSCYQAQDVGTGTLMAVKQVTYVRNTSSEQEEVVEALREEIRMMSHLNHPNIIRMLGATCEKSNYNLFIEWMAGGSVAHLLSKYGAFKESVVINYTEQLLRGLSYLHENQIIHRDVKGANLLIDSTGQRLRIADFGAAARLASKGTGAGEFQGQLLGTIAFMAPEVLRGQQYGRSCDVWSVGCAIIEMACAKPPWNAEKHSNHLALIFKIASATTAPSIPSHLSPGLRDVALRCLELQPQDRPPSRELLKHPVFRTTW
Experimental protocol: Kinase profiling MEKK1
Assay type: biochemical
Experimental context: 100 micromolar inhibitor concentration; 100 is no change
Measurement kind: residual kinase activity, MEKK1

{"Mol smiles": "O=C(Nc1nc2ccc(O)cc2s1)c1cccnc1", "Experimental target": "MEKK1 (Homo sapiens, UniProt Q13233)", "Measurement kind": "residual kinase activity, MEKK1", "Numeric readout": 107}
{"Mol smiles": "CC(=O)Nc1nc2cc(C)ccc2s1", "Experimental target": "MEKK1 (Homo sapiens, UniProt Q13233)", "Measurement kind": "residual kinase activity, MEKK1", "Numeric readout": 107}
{"Mol smiles": "O=C(Nc1nc2ccc(O)cc2s1)c1ccccc1", "Experimental target": "MEKK1 (Homo sapiens, UniProt Q13233)", "Measurement kind": "residual kinase activity, MEKK1", "Numeric readout": 105}
{"Mol smiles": "O=C(Nc1nc2ccc(O)cc2s1)c1ccncc1", "Experimental target": "MEKK1 (Homo sapiens, UniProt Q13233)", "Measurement kind": "residual kinase activity, MEKK1", "Numeric readout": 76}
{"Mol smiles": "O=C(Nc1nc2cc(O)ccc2s1)c1ccncc1", "Experimental target": "MEKK1 (Homo sapiens, UniProt Q13233)", "Measurement kind": "residual kinase activity, MEKK1", "Numeric readout": 106}

====

Recorded residual kinase activity, TrkA, one value per entry.
Experimental target: UniProt:P04629
Sequence (P04629 33-796, species assumed): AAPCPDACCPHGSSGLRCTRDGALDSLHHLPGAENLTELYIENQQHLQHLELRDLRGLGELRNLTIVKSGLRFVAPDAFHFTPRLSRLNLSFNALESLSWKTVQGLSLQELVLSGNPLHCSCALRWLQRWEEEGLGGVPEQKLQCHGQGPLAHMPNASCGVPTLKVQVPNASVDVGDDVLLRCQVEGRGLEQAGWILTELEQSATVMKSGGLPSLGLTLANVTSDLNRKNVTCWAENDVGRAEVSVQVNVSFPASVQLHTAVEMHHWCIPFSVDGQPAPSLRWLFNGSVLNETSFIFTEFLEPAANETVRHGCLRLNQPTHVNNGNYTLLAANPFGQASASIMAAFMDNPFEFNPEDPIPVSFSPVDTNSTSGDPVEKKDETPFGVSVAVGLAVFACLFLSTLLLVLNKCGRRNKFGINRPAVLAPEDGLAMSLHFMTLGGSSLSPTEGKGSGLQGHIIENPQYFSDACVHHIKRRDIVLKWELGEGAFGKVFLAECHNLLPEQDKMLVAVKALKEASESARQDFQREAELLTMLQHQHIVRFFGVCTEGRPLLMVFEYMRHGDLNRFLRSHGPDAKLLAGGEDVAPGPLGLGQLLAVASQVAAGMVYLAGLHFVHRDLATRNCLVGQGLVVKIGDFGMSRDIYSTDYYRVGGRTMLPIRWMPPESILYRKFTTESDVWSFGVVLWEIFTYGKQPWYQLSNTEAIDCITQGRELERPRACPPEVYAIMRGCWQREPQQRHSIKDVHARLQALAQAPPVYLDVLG
Experimental protocol: Kinase profiling TrkA
Format: biochemical
Experimental context: 100 micromolar inhibitor concentration; 100 is no change
Measurement kind: residual kinase activity, TrkA

{"Mol smiles": "O=C(Nc1nc2cc(O)ccc2s1)c1ccncc1", "Numeric readout": 87}
{"Mol smiles": "O=C(Nc1nc2ccc(O)cc2s1)c1ccncc1", "Numeric readout": 81}
{"Mol smiles": "O=C(Nc1nc2ccc(C(F)(F)F)cc2s1)c1ccccc1", "Numeric readout": 84}
{"Mol smiles": "COC(=O)c1cccc(C(=O)Nc2nc3cc(OC)ccc3s2)c1", "Numeric readout": 85}
{"Mol smiles": "CC(=O)Nc1nc2ccc(F)cc2s1", "Numeric readout": 58}
{"Mol smiles": "O=C(Nc1nc2ccc(O)cc2s1)c1ccccc1", "Numeric readout": 23}
{"Mol smiles": "COc1ccc2nc(NC(=O)c3ccccc3)sc2c1", "Numeric readout": 60}
{"Mol smiles": "O=C(Nc1nc2ccc(O)cc2s1)c1cccnc1", "Numeric readout": 71}
{"Mol smiles": "O=C(Nc1nc2cc(O)ccc2s1)c1cccnc1", "Numeric readout": 51}

====

Recorded remaining activity at 100 µM, one value per entry.
Experimental target: TTK (Homo sapiens)
Experimental protocol: Kinase profiling TTK
Format: biochemical
Experimental context: 100 micromolar inhibitor concentration; 100 is no change; read-out: residual kinase activity, TTK
Text: Any value less that 25 is considered to be highly significant inhibition.

{"Mol smiles": "CC(=O)Nc1nc2cc(F)ccc2s1", "remaining activity at 100 µM / %": 64}
{"Mol smiles": "CC(=O)Nc1nc2cc(C(F)(F)F)ccc2s1", "remaining activity at 100 µM / %": 86}
{"Mol smiles": "COc1ccc2sc(NC(C)=O)nc2c1", "remaining activity at 100 µM / %": 67}
{"Mol smiles": "CC(=O)Nc1nc2ccc(C#N)cc2s1", "remaining activity at 100 µM / %": 33}
{"Mol smiles": "CC(=O)Nc1nc2ccc(C(F)(F)F)cc2s1", "remaining activity at 100 µM / %": 49}
{"Mol smiles": "CC(=O)Nc1nc2ccc([N+](=O)[O-])cc2s1", "remaining activity at 100 µM / %": 55}
{"Mol smiles": "CC(=O)Nc1nc2ccc(O)cc2s1", "remaining activity at 100 µM / %": 31}

====

Recorded remaining activity at 100 µM, one value per entry.
Experimental target: HIPK2 (Homo sapiens)
Sequence (Q9H2X6 whole entry, species assumed): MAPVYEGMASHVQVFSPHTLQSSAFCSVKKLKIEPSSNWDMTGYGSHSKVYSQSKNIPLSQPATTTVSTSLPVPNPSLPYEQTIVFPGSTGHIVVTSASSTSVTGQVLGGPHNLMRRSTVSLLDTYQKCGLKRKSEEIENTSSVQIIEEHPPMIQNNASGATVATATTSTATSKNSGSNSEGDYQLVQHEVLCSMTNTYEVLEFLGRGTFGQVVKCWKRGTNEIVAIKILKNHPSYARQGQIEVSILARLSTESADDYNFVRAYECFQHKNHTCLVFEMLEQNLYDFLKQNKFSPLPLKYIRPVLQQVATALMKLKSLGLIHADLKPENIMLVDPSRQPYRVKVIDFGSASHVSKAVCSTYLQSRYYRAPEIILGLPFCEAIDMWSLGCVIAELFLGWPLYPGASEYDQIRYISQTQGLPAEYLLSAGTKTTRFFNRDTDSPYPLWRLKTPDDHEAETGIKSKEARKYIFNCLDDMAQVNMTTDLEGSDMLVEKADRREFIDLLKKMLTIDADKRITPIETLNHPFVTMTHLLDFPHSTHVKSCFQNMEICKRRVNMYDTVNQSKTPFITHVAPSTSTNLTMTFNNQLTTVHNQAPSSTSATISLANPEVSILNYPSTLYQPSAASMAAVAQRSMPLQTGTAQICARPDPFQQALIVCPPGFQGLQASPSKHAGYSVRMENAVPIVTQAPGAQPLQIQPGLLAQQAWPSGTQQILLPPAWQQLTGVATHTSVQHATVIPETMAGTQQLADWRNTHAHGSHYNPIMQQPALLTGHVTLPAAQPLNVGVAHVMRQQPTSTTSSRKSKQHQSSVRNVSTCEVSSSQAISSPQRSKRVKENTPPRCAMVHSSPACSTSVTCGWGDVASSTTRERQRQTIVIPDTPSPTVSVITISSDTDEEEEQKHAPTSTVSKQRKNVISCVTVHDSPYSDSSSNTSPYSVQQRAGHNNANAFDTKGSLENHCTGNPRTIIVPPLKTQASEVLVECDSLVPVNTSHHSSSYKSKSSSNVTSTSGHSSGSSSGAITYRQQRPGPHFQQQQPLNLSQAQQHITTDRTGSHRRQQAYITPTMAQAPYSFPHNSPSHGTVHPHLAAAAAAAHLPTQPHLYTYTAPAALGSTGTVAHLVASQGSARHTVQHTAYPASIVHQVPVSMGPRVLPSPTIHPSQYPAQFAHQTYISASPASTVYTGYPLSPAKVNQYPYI
Experimental protocol: Kinase profiling HIPK2
Type: biochemical
Experimental context: 100 micromolar inhibitor concentration; 100 is no change; read-out: residual kinase activity, HIPK2
Measurement kind: remaining activity at 100 µM

{"Mol smiles": "CC(=O)Nc1nc2ccc(C#N)cc2s1", "Experimental target": "HIPK2 (Homo sapiens)", "Measurement kind": "remaining activity at 100 µM", "Result": "23%"}
{"Mol smiles": "CC(=O)Nc1nc2ccc([N+](=O)[O-])cc2s1", "Experimental target": "HIPK2 (Homo sapiens)", "Measurement kind": "remaining activity at 100 µM", "Result": "8%"}
{"Mol smiles": "CC(=O)Nc1nc2ccc(C(F)(F)F)cc2s1", "Experimental target": "HIPK2 (Homo sapiens)", "Measurement kind": "remaining activity at 100 µM", "Result": "16%"}
{"Mol smiles": "COc1ccc2sc(NC(C)=O)nc2c1", "Experimental target": "HIPK2 (Homo sapiens)", "Measurement kind": "remaining activity at 100 µM", "Result": "25%"}
{"Mol smiles": "CC(=O)Nc1nc2cc(C(F)(F)F)ccc2s1", "Experimental target": "HIPK2 (Homo sapiens)", "Measurement kind": "remaining activity at 100 µM", "Result": "51%"}
{"Mol smiles": "CC(=O)Nc1nc2ccc(O)cc2s1", "Experimental target": "HIPK2 (Homo sapiens)", "Measurement kind": "remaining activity at 100 µM", "Result": "14%"}
{"Mol smiles": "CC(=O)Nc1nc2cc(F)ccc2s1", "Experimental target": "HIPK2 (Homo sapiens)", "Measurement kind": "remaining activity at 100 µM", "Result": "22%"}

====

Experimental target: IRAK1 (Homo sapiens)
Sequence (P51617 whole entry, species assumed): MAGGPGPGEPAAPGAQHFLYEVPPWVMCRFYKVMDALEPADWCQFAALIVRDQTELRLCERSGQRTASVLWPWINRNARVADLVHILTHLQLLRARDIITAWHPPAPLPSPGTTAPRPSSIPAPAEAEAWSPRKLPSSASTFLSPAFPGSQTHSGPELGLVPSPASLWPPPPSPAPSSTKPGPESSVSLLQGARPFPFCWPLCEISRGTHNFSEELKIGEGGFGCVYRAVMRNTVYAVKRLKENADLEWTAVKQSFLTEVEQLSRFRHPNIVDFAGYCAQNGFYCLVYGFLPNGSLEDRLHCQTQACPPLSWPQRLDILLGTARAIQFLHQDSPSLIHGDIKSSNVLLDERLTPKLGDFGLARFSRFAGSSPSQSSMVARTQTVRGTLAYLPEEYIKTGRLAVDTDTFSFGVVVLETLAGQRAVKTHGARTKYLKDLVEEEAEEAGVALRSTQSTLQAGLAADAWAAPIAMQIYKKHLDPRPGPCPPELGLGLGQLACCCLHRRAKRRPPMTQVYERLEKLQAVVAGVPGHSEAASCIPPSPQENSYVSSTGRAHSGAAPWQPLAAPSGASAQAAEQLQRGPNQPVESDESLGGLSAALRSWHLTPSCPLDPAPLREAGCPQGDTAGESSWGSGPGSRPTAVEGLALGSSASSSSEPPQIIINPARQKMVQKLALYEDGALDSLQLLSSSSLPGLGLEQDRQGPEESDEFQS
Experimental protocol: Kinase profiling IRAK1
Assay type: biochemical
Experimental context: 100 micromolar inhibitor concentration; 100 is no change; read-out: residual kinase activity, IRAK1
Source text: Any value less that 25 is considered to be highly significant inhibition.
Recorded remaining activity at 100 µM, one value per entry.
Measurement kind: remaining activity at 100 µM (%)

{"Compound": "CC(=O)Nc1nc2cc(F)ccc2s1 [Compound 03-77]", "Measurement kind": "remaining activity at 100 µM", "Numeric readout": 46}
{"Compound": "COc1ccc2sc(NC(C)=O)nc2c1 [Compound 03-21]", "Measurement kind": "remaining activity at 100 µM", "Numeric readout": 45}
{"Compound": "CC(=O)Nc1nc2ccc(C#N)cc2s1 [Compound 01-94]", "Measurement kind": "remaining activity at 100 µM", "Numeric readout": 11}
{"Compound": "CC(=O)Nc1nc2ccc(C(F)(F)F)cc2s1 [Compound 01-90]", "Measurement kind": "remaining activity at 100 µM", "Numeric readout": 43}
{"Compound": "CC(=O)Nc1nc2cc(C(F)(F)F)ccc2s1 [Compound 03-73]", "Measurement kind": "remaining activity at 100 µM", "Numeric readout": 85}
{"Compound": "CC(=O)Nc1nc2ccc(O)cc2s1 [Compound 01-71]", "Measurement kind": "remaining activity at 100 µM", "Numeric readout": 26}
